SYSTEM UNDER TEST: Bifunctional 3'-5' exonuclease/ATP-dependent helicase WRN (Homo sapiens, UniProt Q14191)
Sequence (Q14191 whole entry): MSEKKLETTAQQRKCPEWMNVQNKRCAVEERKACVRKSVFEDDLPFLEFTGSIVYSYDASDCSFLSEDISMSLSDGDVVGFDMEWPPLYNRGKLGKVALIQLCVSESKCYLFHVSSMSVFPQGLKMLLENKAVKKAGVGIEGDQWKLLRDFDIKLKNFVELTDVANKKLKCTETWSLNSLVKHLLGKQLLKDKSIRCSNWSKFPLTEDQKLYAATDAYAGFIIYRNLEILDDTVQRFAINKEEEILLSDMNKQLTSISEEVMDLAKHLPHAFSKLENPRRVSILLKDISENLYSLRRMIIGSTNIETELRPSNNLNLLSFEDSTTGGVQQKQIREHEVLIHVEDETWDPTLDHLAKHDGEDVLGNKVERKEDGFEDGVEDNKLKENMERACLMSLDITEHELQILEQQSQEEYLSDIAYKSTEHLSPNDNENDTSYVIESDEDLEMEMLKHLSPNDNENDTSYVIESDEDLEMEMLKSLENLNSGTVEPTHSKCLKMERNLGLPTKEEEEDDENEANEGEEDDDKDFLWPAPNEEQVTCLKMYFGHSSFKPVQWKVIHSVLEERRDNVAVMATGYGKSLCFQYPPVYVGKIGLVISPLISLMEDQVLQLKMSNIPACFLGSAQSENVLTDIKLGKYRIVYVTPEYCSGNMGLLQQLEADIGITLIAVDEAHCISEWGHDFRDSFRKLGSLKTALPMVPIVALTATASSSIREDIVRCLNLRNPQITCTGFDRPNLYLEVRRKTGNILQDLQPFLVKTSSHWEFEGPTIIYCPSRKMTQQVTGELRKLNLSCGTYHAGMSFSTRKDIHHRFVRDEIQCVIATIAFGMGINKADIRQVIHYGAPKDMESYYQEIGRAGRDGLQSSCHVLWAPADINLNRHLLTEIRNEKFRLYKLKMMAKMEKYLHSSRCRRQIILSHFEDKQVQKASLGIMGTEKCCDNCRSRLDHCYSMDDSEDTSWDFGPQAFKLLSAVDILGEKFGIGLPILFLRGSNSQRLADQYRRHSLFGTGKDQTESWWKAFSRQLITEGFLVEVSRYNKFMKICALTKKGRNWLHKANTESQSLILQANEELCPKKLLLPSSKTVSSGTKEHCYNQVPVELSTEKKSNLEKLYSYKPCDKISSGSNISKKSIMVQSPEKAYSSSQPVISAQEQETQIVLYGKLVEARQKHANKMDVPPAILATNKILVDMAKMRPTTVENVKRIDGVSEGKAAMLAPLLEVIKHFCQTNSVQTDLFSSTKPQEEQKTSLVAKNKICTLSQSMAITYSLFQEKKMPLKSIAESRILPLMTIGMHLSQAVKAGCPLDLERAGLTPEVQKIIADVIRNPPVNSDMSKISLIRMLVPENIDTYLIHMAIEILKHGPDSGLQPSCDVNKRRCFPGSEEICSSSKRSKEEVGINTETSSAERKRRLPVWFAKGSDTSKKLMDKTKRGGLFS
EXPERIMENT NOTES: ADP-Glo Kinase Assay
Overview of recorded pIC50 for various molecules
A value of pIC50 is the negative decimal logarithm of a concentration given in moles per litre.

Guide cases for pIC50, answers given:
{"MOLECULE": "CCc1c(N2CCN(C(=O)c3ncnc(C)c3O)CC2)c(=O)n2nc(-c3cc(C)c4ncccc4c3)nc2n1CC(=O)Nc1ccc(C(F)(F)F)cc1Cl [WO2025049746, Example 336]", "pIC50": 7.28}
{"MOLECULE": "CCc1c(N2CCN(C(=O)c3ncnc(C)c3O)CC2)c(=O)n2nc(-c3ccc4c(c3)CCC(=O)N4C)nc2n1CC(=O)Nc1ccc(C(F)(F)F)cc1Cl [WO2025049746, Example 324]", "pIC50": 7.60}

The recorded pIC50 for entry CCc1c(N2CCN(C(=O)c3ccccc3NS(=O)(=O)C3CC3)CC2)c(=O)n2nc(N(C)C)nc2n1CC(=O)Nc1ccc(C(F)(F)F)cc1Cl [WO2025049746, Example 85] equals 7.45

====

Quick reference for IC50 among some compounds
SYSTEM UNDER TEST: Bifunctional 3'-5' exonuclease/ATP-dependent helicase WRN [480-1251] (UniProt Q14191)
Construct: 480-1251
Sequence (Q14191 480-1251): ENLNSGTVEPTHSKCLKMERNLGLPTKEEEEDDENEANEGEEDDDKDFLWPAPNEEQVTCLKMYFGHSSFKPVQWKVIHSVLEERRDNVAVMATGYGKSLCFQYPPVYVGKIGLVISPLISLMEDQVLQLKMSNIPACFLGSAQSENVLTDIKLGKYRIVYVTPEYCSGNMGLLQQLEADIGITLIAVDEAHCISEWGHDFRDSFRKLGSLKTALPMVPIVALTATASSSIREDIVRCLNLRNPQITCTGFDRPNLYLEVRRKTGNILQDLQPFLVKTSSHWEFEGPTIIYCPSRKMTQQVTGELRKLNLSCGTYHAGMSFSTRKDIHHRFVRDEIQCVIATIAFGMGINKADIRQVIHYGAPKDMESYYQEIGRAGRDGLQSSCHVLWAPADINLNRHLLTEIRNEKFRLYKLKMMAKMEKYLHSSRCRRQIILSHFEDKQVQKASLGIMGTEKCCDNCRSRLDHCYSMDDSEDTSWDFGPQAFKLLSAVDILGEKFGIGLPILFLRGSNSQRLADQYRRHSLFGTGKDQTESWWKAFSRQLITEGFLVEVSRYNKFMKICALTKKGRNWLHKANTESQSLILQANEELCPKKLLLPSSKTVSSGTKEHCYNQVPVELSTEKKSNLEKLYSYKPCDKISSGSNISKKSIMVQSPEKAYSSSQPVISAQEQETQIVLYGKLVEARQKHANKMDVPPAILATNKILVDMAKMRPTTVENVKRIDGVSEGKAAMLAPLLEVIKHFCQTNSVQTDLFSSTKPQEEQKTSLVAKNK
EXPERIMENT NOTES: Biochemical Activity Assays
Description: The pure fractions were pooled and desalted/buffer exchanged into storage buffer using a HiTrap desalting column. […] First, WRN alone was pre-incubated with DMSO or compound of interest for 15 minutes. To initiate the reaction, ATP, dsDNA substrate, and ssDNA competitor (ssDNA_comp: […]) were added and incubated at room temperature for 20 minutes at which point DNA unwinding activity was monitored by measuring Cy3 fluorescence. […]
// note: answer is a bare numeric in nM

{"SMILES NOTATION": "CCc1c(N2CCN(C(=O)c3nccc4cc[nH]c34)CC2)c(=O)n2nc(-c3ccc4c(c3)COC4(C)C)nc2n1CC(=O)Nc1ccc(C(F)(F)F)cc1Cl", "IC50 [nM]": 373}

Lab note: CCc1c(N2CCN(C(=O)c3cc(C(C)C)c(O)cc3O)CC2)c(=O)n2nc(-c3ccc4c(c3)COC4)nc2n1CC(=O)Nc1ccc(C(F)(F)F)cc1Cl gave IC50 of 1200

IC50 reported for this compound CCc1c(N2CCN(C(=O)c3ncnc(C)c3O)CC2)c(=O)n2nc(-c3cc4c(cc3F)C3(CN(C)C3)OC4)nc2n1CC(=O)Nc1ccc(C(F)(F)F)cc1Cl : 48

The recorded IC50 for entry CCc1c(N2CCN(C(=O)c3ncnc(C)c3O)CC2)c(=O)n2nc(C3=CCOCC3)nc2n1CC(=O)NC12CC(C)(C1)C2(F)F equals 1110

Record summary for CCc1c(N2CCN(C(=O)c3ncnc(C)c3O)CC2)c(=O)n2nc(-c3cnc4c(c3)CCOC4)nc2n1CC(=O)Nc1ccc(C(F)(F)F)cc1Cl : reported IC50 = 65

// field: IC50; key: CCc1c(N2CCN(C(=O)c3nc4n(c(=O)c3O)CCCC4)CC2)c(=O)n2nc(-c3ccc4c(c3)COC4)nc2n1CC(=O)Nc1ccc(C(F)(F)F)cc1Cl ; value = 19

Value of IC50 reported for the compound CCc1c(N2CCN(C(=O)c3ncnc(C)c3O)CC2)c(=O)n2nc(-c3cccc4c3OC(F)(F)O4)nc2n1CC(=O)Nc1ccc(C(F)(F)F)cc1Cl is 67

Memo: CCc1c(N2CCN(C(=O)c3ncnc(C)c3O)CC2)c(=O)n2nc(C3=CCOCC3)nc2n1CC(=O)NC12COC(C(F)(F)F)(C1)C2 , reported IC50: 748

The measured IC50 associated with CCc1c(N2CCN(C(=O)c3ncnc(C)c3O)CC2)c(=O)n2nc(-c3cc4c(cc3C)COC4)nc2n1CC(=O)Nc1ccc(C(F)(F)F)cc1Cl reads 56

Notebook: CCc1c(N2CCN(C(=O)c3ncnc(C)c3O)CC2)c(=O)n2nc(-c3cnc4c(c3)CCO4)nc2n1CC(=O)Nc1ccc(C(F)(F)F)cc1Cl , IC50 read as 37

====

SYSTEM UNDER TEST: Bifunctional 3'-5' exonuclease/ATP-dependent helicase WRN (Homo sapiens)
EXPERIMENT NOTES: ADP-Glo Kinase Assay
IC50 values for the compounds below.
Write the number in nM without appending the unit.

Study these solved cases before continuing.
{"SMILES NOTATION": "CCc1c(N2CCN(C(=O)c3ncnc(C)c3O)CC2)c(=O)n2nc(-c3ccc4c(c3C)COC4)nc2n1CC(=O)Nc1ccc(C(F)(F)F)cc1Cl", "UNIT": "nM", "REPORTED RESULT": 9990}
{"SMILES NOTATION": "CCc1c(N2CCN(C(=O)c3ncnc(C)c3O)CC2)c(=O)n2nc(-c3ccn4nccc4c3C)nc2n1CC(=O)Nc1ccc(C(F)(F)F)cc1Cl", "UNIT": "nM", "REPORTED RESULT": 21}
{"SMILES NOTATION": "CCc1c(N2CCN(C(=O)c3ncnc(C)c3O)CC2)c(=O)n2nc(-c3ccc4c(c3)CN(C)C4=O)nc2n1CC(=O)Nc1ccc(C(F)(F)F)cc1Cl", "UNIT": "nM", "REPORTED RESULT": 32}
{"SMILES NOTATION": "CCc1c(N2CCN(C(=O)c3ncnc(C)c3O)CC2)c(=O)n2nc(-c3ccn4nc(C)cc4c3)nc2n1CC(=O)Nc1ccc(C(F)(F)F)cc1Cl", "UNIT": "nM", "REPORTED RESULT": 26}
{"SMILES NOTATION": "CCCn1cc2cc(-c3nc4n(CC(=O)Nc5ccc(C(F)(F)F)cc5Cl)c(CC)c(N5CCN(C(=O)c6ncnc(C)c6O)CC5)c(=O)n4n3)ccc2n1", "UNIT": "nM", "REPORTED RESULT": 29}

CCc1c(N2CCN(C(=O)c3ncnc(C)c3O)CC2)c(=O)n2nc(-c3ccn4nc(F)cc4c3)nc2n1CC(=O)Nc1ccc(C(F)(F)F)cc1Cl has a reported IC50 of 26

Entry CCc1c(N2CCN(C(=O)c3cncc4cc[nH]c34)CC2)c(=O)n2nc(C3=CCOCC3)nc2n1CC(=O)Nc1ccc(C(F)(F)F)cc1Cl — recorded IC50 = 31.8

IC50 recorded for this compound, Cc1ncnc(C(=O)N2CCN(c3c4n(c5nc(-c6ccc7c(c6)COC7(C)C)nn5c3=O)[C@@H](C(=O)Nc3ccc(C(F)(F)F)cc3Cl)C[C@H]4C)CC2)c1O , is 32.4

====

SYSTEM UNDER TEST: Bifunctional 3'-5' exonuclease/ATP-dependent helicase WRN (Homo sapiens)
EXPERIMENT NOTES: ADP-Glo Kinase Assay
Protocol: ATPase activity was measured using the ADP-Glo Kinase Assay following the manufacturers recommended protocol.
MEASURED ENDPOINT: pIC50
Interpret pIC50 as the negative base-10 log of the concentration measured in mol/L.

Solved entries (count: 4):
{"COMPOUND": "CCc1c(N2CCN(C(=O)c3ncnc(C)c3O)CC2)c(=O)n2nc(-c3cc4c(cc3C)OCC4)nc2n1CC(=O)Nc1ccc(C(F)(F)F)cc1Cl [WO2025049746, Example 174]", "pIC50": 7.23}
{"COMPOUND": "CCc1c(N2CCN(C(=O)c3ccccc3NS(=O)(=O)C3CC3)CC2)c(=O)n2nc(N3C[C@H]4COC[C@H]4C3)nc2n1CC(=O)Nc1ccc(C(F)(F)F)c2c1CC2 [WO2025049746, Example 112]", "pIC50": 7.23}
{"COMPOUND": "CCc1c(N2CCN(C(=O)c3ncnc(C)c3O)CC2)c(=O)n2nc(C3CCC3)nc2n1CC(=O)Nc1ccc(C(F)(F)F)cc1C [WO2025049746, Example 79]", "pIC50": 6.27}
{"COMPOUND": "CCc1c(N2CCN(C(=O)c3ncnc(C)c3O)CC2)c(=O)n2nc(N3CCCn4nccc43)nc2n1CC(=O)Nc1ccc(C(F)(F)F)cc1Cl [WO2025049746, Example 31]", "pIC50": 7.34}

Per the reported Bifunctional 3'-5' exonuclease/ATP-dependent helicase WRN (Homo sapiens) data, CCc1c(N2CCN(C(=O)c3ncnc(C)c3O)CC2)c(=O)n2nc(-c3ccc4c(c3)nnn4C)nc2n1CC(=O)Nc1ccc(C(F)(F)F)cc1Cl [WO2025049746, Example 314] has pIC50 of 7.49

Field pIC50 (system: Bifunctional 3'-5' exonuclease/ATP-dependent helicase WRN (Homo sapiens)) for entry CCc1c(N2CCN(C(=O)c3ccnc4cc[nH]c34)CC2)c(=O)n2nc(C3=CCOCC3)nc2n1CC(=O)Nc1ccc(C(F)(F)F)cc1Cl [WO2025049746, Example 46] = 7.28

Bifunctional 3'-5' exonuclease/ATP-dependent helicase WRN (Homo sapiens) assay, compound CCc1c(N2CCN(C(=O)c3ncnc(C)c3O)CC2)c(=O)n2nc(-c3ccc4c(c3)oc(=O)n4C)nc2n1CC(=O)Nc1ccc(C(F)(F)F)cc1Cl [WO2025049746, Example 233] , recorded pIC50 = 7.68
